Data provenance is ChEMBL document CHEMBL1125480.

Listing of recorded Reduction by entry.
Organism: Mus musculus
Test: Maximum reduction in blood glucose levels in KKA mice at a dosage of 0.005% in diet
Format: functional
Write the number in % without appending the unit.

Before answering, review these 4 worked examples.
INSERT INTO assay_data (molecule, unit_annotation, experimental_value) VALUES
  ('Cc1nc(C(=O)COc2ccc(/C=C3\SC(=O)NC3=O)cc2)c(C)o1', '%', 33),
  ('O=C1NC(=O)/C(=C/c2ccc(OCCc3csc(-c4ccccc4)n3)cc2)S1', '%', 57),
  ('Cc1oc(-c2cccs2)nc1CCOc1ccc(/C=C2\SC(=O)NC2=O)cc1', '%', 55),
  ('CCc1oc(-c2ccccc2)nc1CCOc1ccc(CC2SC(=O)NC2=O)cc1 (stereo not given)', '%', 55);

Moving on to another molecule below.
Item: O=C1NC(=O)C(Cc2ccc(OCc3nc4ccccc4o3)cc2)S1 (stereo not given) | Reduction: 35
